system: A204; experiment: relative viability vs DMSO control (72 h) (fraction); higher = more viable cells; details: 0.00051 µM
relative viability overview
No unit in the answer, only the number.

Please review the following examples before continuing.
Cc1c(F)cc(C(=O)NC2CC2)cc1-c1ccc(C(=O)NCC(C)(C)C)cn1    1.07
CCCS(=O)(=O)N[C@H]1C[C@@H](N(C)c2ncnc3[nH]ccc23)C1    1.06

Exercise: Query: relative viability; subject: `CCCCCCCCCCCCCCCCCCOP(=O)([O-])OC1CC[N+](C)(C)CC1`
Key: 1.08

Exercise: Value lookup for relative viability; key = `Cc1cn(-c2cc(NC(=O)c3ccc(C)c(Nc4nccc(-c5cccnc5)n4)c3)cc(C(F)(F)F)c2)cn1`
Key: 0.979

Exercise: Fill in the blank: the reported relative viability of `N#CCC1(n2cc(-c3ncnc4[nH]ccc34)cn2)CN(C2CCN(C(=O)c3ccnc(C(F)(F)F)c3F)CC2)C1` is ____.
Key: 1.02

Exercise: # lookup: relative viability of `Cc1cn(-c2cc(NC(=O)c3ccc(C)c(Nc4nccc(-c5cnccn5)n4)c3)cc(C(F)(F)F)c2)cn1`
Key: 1.11

Exercise: # get_value(readout='relative viability', item= `COc1cc2nccc(Oc3ccc(NC(=O)NC4CC4)c(Cl)c3)c2cc1C(N)=O` )
Key: 1.04

Exercise: Please give the measured relative viability for this molecule: `CNC(=O)c1cc(Oc2ccc(NC(=O)Nc3ccc(Cl)c(C(F)(F)F)c3)cc2)ccn1`
Key: 1.1

Exercise: Any idea what relative viability was measured for `C[C@@H](Oc1cc(-c2cnn(C3CCNCC3)c2)cnc1N)c1c(Cl)ccc(F)c1Cl` ?
Key: 1.05

Exercise: Please give the measured relative viability for this molecule: `C[C@@H]1COC(Nc2ccc3ncnc(Nc4ccc(OCc5nccs5)c(Cl)c4)c3c2)=N1`
Key: 1.06

Exercise: // lookup relative viability for `N#Cc1ccnc(N2C(=O)CC[C@H]2C(=O)N(c2cncc(F)c2)[C@H](C(=O)NC2CC(F)(F)C2)c2ccccc2Cl)c1`
Key: 1.03

Exercise: Which relative viability value is on record for `C=CC(=O)Nc1cccc(Nc2nc(Nc3ccc(N4CCN(C(C)=O)CC4)cc3OC)ncc2C(F)(F)F)c1` ?
Key: 1.08

Exercise: I have this molecule here, `FC(F)(F)c1ccc(CNc2ccc(Cc3c[nH]c4ncc(Cl)cc34)cn2)cn1` , and I need its recorded relative viability.
Key: 1.14
